System: Escherichia coli
Test: Antimicrobial activity against xtended-spectrum-beta-lactamase-producing Escherichia coli obtained from urinary tract infection patient by Etest
Type: functional
Conditions: Urine
assay-readout: MIC

# query-smiles, assay-readout, result-value
rows = [
    ("C[C@@H](O)[C@H]1C(=O)N2C(C(=O)O)=C(S[C@@H]3CN[C@H](C(=O)Nc4cccc(C(=O)O)c4)C3)[C@H](C)[C@H]12", "MIC", "0.07 µg/mL"),
    ("O=C1CN(/N=C/c2ccc([N+](=O)[O-])o2)C(=O)N1", "MIC", "17 µg/mL"),
    ("CC(C)(C)C(=O)OCOC(=O)[C@@H]1N2C(=O)[C@@H](/N=C/N3CCCCCC3)[C@H]2SC1(C)C", "MIC", "1.17 µg/mL"),
    ("C[C@@H]1O[C@@H]1P(=O)(O)O", "MIC", "1.38 µg/mL"),
]
